# method.summary: Cell signaling CRE-BLA (Fsk stim)
# condition.info: CHO CRE-bla reporter, forskolin EC10, beta-lactamase ratio; series mostly up to 38.2 µM
The whole screen tested about 71,000 compounds, of which about 1,800 (2.5%) were called active. Inconclusive results (about 26%) are left out. The call rests on the fitted dose curve; in most records, active means well fitted activation curve with a large enough effect in the signal ratio, with a control signal flat (not every such curve was filed as active); inconclusive means small, poorly fitted or top-dose-only effect, or effect the other way, or a change in a side signal; inactive means flat fitted curve, though single readings scatter; the % refers to the signal ratio. The sample holds actives, similar compounds and a random draw of the others, so the mix is not that of the screen.
Classes to choose from: true for active, false for inactive

Query: Test call for this molecule, please: COC(=O)c1ccc(C(NC(=O)OCc2ccccc2)/C(C)=C/[C@@H](C)C(=O)NCc2cc(C)on2)cc1 (stereo not given in full)
Result: false

Query: What classification did COC(=O)C1(Cc2ccccc2)C=C2C(=C(C)C(=O)C2C)CN1 (stereo not given) end up with in this test?
Result: false

Query: recorded result category for Cc1ccc(Br)cc1 in this test
Result: false

Query: Fill in: this test's call for CCNc1ncc2ncc(=O)n(Cc3cccc(OC)c3)c2n1 is ___
Result: false

Query: // outcome(item) with item = C=CCn1c(SCC(=O)Nc2nc3ccccc3s2)nnc1-c1ccccc1O
Result: false

Query: Per the assay record, what outcome was assigned to CCNc1ncc2ncc(=O)n(CCc3ccccc3)c2n1 ?
Result: false

Query: Record lookup: outcome of this test for CCOC(=O)c1cnc(-n2nc(C)cc2C)nc1Nc1cccc(C(C)=O)c1 ?
Result: false

Query: Which outcome did this test record for the molecule COc1ccc(OC)c2[nH]c(=O)c(CCNC(=O)C(C)(C)C)cc12 ?
Result: false

Query: How did this test come out for COc1cccc(C(=O)Nc2c3c(nn2-c2cccc(C)c2C)CS(=O)(=O)C3)c1OC ?
Result: true

Query: Dear colleague, could you share the recorded outcome for COc1ccc(CNc2ncncc2-c2ccccc2C)c(OC)c1 when you have a moment?
Result: false

New cases:
Query: Give the logged outcome of this assay for the following molecule: Cc1cc(C)nc(-n2nc(C)cc2NC(=O)c2ccc(Br)o2)n1
Result: true

Query: Outcome? COc1ccc(CNc2ncncc2-c2ccccc2OC)c(OC)c1
Result: false

Query: Would you mind telling me which call this test gave N[C@@H](C(=O)O)c1ccc(P(=O)(O)O)cc1 ?
Result: false

Query: How was Cc1cccc(Br)c1 classified in this test?
Result: false

Query: Identify the outcome logged in this assay for the molecule shown: CCCC(NC(=O)c1ccccc1)c1nc2ccccc2n1Cc1ccc(C(=O)OC)o1 (stereo not given)
Result: false

Query: // outcome(item) with item = COCC(C)n1c(SCc2ccc(C(=O)OC)o2)nc2ccccc2c1=O (stereo not given)
Result: true

Query: How was CS(=O)(=O)N1CCN(C(=O)Cc2ccccc2)CC1 classified in this test?
Result: false

Query: Recorded test outcome, item O=C(Nc1ccccc1)N[C@H]1C[C@H](C(=O)O)Nc2cc(Cl)cc(Cl)c21
Result: false

Query: Hello, I am checking results. What call was entered for CCCC[C@@H]1C[C@H]1C(NC(=O)c1ccc(-c2ccccc2)cc1)c1ccc(-c2ccccc2)cc1 (stereo not given in full) ?
Result: false

Query: How did this test come out for C[N+](C)(CCCCCC[N+](C)(C)CCCN1C(=O)c2cccc3cccc(c23)C1=O)CCCN1C(=O)c2cccc3cccc(c23)C1=O ?
Result: false

* * *

This listing pairs molecules with measured activity change, negative = inhibition.
# method.summary: Cell signaling CRE-BLA (Fsk stim); on activity change, negative = inhibition: % of control where 0% means no effect
# condition.info: CHO CRE-bla reporter, forskolin EC10, beta-lactamase ratio; series mostly up to 38.2 µM
Hit rate of the full screen: of about 71,000 compounds, about 1,800 (2.5%) were called active. About 26% were inconclusive and are not listed. The full list was thinned out, with actives kept by preference.

# activity change, negative = inhibition of CC(=O)N1CCN(c2cccc(C)c2C)CC1 = 1.32% [at 7.6 µM] (inactive)

Entry CSc1nnc2c(n1)OC(c1cn(C)c3ccccc13)N(C(C)=O)c1ccccc1-2 (stereo unspecified) — recorded activity change, negative = inhibition = 2.27% [at 7.6 µM] (inactive)

Field activity change, negative = inhibition (entry O=C(O)c1c(Br)c(Br)c(Br)c(Br)c1C1c2ccc(O)cc2Oc2cc(O)ccc21 ) reads 4.42% [at 7.6 µM] (inactive)

Item: COc1ccc(-n2c(SC)nc(O)cc2=O)cc1 | activity change, negative = inhibition: -26.5% [at 7.6 µM] (inactive)

Recorded activity change, negative = inhibition (molecule O=C(NCc1ccc(Cl)c(Cl)c1)c1cccnc1 ): -25.4% [at 7.6 µM] (inactive)

Now for another entry.
// activity change, negative = inhibition value for COC(CCN(C)C)(c1ccccc1)c1ccccc1 : -22.8% [at 7.6 µM] (inactive)

* * *

# method.summary: Cell signaling CRE-BLA (Fsk stim)
# condition.info: CHO CRE-bla reporter, forskolin EC10, beta-lactamase ratio; series mostly up to 38.2 µM
The whole screen tested about 71,000 compounds, of which about 1,800 (2.5%) were called active. Roughly 26% stayed inconclusive and do not appear here. Calls come from the whole dose curve; as a rule, active = well fitted activation curve with a large enough effect in the signal ratio, with a control signal flat (not every such curve was filed as active); inconclusive = small, poorly fitted or top-dose-only effect, or effect the other way, or a change in a side signal; inactive = flat fitted curve, though single readings scatter; the % refers to the signal ratio. The sample holds actives, similar compounds and a random draw of the others, so the mix is not that of the screen.
I would appreciate it if you answered using one of these outcomes: 1 (active), -1 (inactive)

Answered examples (5):
Query: Tell me the assay call for Cc1c(NC(=O)Nc2ccccc2Cl)sc(=S)n1C please.
Result: -1

Query: Name the outcome recorded for COC(=O)c1sc(NC(=O)c2csc3c2CCCC3)nc1C in the assay.
Result: -1

Query: For Cc1cccc(NC(=O)COc2ccc(Br)cc2C)n1 , which call appears in the assay record?
Result: -1

Query: # outcome recorded in this test, key = O=C(Nc1ccccc1N1CCCCC1)c1cccc(F)c1
Result: 1

Query: GET /call?item= O=S(=O)(NCC1CCCO1)c1ccc2ccccc2c1 (configuration not stated) returns the recorded outcome of this test.
Result: -1

New cases:
Query: Hi, do you know how C=C(C)C1CC=C(C)C(O)C1 (configuration not stated) came out in this test?
Result: -1

Query: For this compound, state the assay outcome: COc1ccc(S(=O)(=O)N2CCC(C(=O)N3CCOCC3)CC2)cc1OC
Result: -1

Query: // param item: CCOCC(=O)Nc1sc2c(c1C(=O)OCC)CCCC2 ; yields the recorded call
Result: 1

Query: Hi, do you know how CCOC(=O)c1sc(NC(=O)CCN2CCOCC2)c(C(=O)OCC)c1C came out in this test?
Result: -1

Query: For O=C(CCN1C(=O)c2ccccc2C1=O)Nc1ccncc1 , which call appears in the assay record?
Result: -1

Query: Could you check what this test reported for COC(=O)c1c(NC(=O)CSc2nncs2)sc2c1CCCCC2 ?
Result: 1

Query: Recorded call for C=CCc1cccc2cc(C(=O)OCC)c(=O)oc12 ?
Result: -1

* * *

# method.summary: Cell signaling CRE-BLA (Fsk stim)
# condition.info: CHO CRE-bla reporter, forskolin EC10, beta-lactamase ratio; series mostly up to 38.2 µM
Out of some 71,000 compounds screened, about 1,800 (2.5%) were called active. Not shown: some 26% with an inconclusive outcome. Calls come from the whole dose curve; as a rule, active = well fitted activation curve with a large enough effect in the signal ratio, with a control signal flat (not every such curve was filed as active); inconclusive = small, poorly fitted or top-dose-only effect, or effect the other way, or a change in a side signal; inactive = flat fitted curve, though single readings scatter; the % refers to the signal ratio. The full list was thinned out, with actives kept by preference.
Please reply with one of these outcomes: label 1 for active, label 0 for inactive

Query: Outcome logged for CCOc1ccc2cc(C#N)c(SCC(=O)OC)nc2c1 in this assay:
Result: label 0

Query: # lookup: test call for CC(=O)CC(C)C
Result: label 0

Query: Would you mind telling me which call this test gave COc1ccc(C(=O)NCc2cn3ccccc3n2)cc1 ?
Result: label 0

Query: Call for entry CCOc1ncccc1C(=O)OCc1cn2cc(Cl)ccc2n1 :
Result: label 1

Query: Answer briefly: the call reported for CCCc1cc(=O)[nH]c(SCC(=O)OCc2ccccc2)n1 in this assay.
Result: label 0

Query: Per the records of this test, what outcome belongs to COc1ccccc1-n1c(CNC(=O)c2ccccc2)nnc1SCC(=O)Nc1nnc(C)s1 ?
Result: label 0

Query: Recorded call for Cc1nn2c3ccccc3nc2n(C)c1=O ?
Result: label 0

* * *

# method.summary: Cell signaling CRE-BLA (Fsk stim)
# condition.info: CHO CRE-bla reporter, forskolin EC10, beta-lactamase ratio; series mostly up to 38.2 µM
Out of some 71,000 compounds screened, about 1,800 (2.5%) were called active. Roughly 26% stayed inconclusive and do not appear here. The call rests on the fitted dose curve; in most records, active means well fitted activation curve with a large enough effect in the signal ratio, with a control signal flat (not every such curve was filed as active); inconclusive means small, poorly fitted or top-dose-only effect, or effect the other way, or a change in a side signal; inactive means flat fitted curve, though single readings scatter; the % refers to the signal ratio. The full list was thinned out, with actives kept by preference.
The reply should be one of these categories: 1 for active, 0 for inactive

Query: Outcome? CCOc1ccccc1Nc1nnc(SCC(=O)Nc2cc(C)on2)s1
Result: 0

* * *

# method.summary: Cell signaling CRE-BLA (Fsk stim)
# condition.info: CHO CRE-bla reporter (cAMP response element driving beta-lactamase), forskolin EC10, beta-lactamase ratio; series mostly up to 38.2 µM
About 1,800 (2.5%) of roughly 71,000 compounds were called active. Not shown: some 26% with an inconclusive outcome. Calls follow the shape of the dose curve; as a rule, active = well fitted activation curve with a large enough effect in the signal ratio, with a control signal flat (not every such curve was filed as active); inconclusive = small, poorly fitted or top-dose-only effect, or effect the other way, or a change in a side signal; inactive = flat fitted curve, though single readings scatter; the % refers to the signal ratio. Shown is part of a subset that was picked to be rich in actives.
Lab note: assign the record to one of True = active, False = inactive

Consider the worked cases shown below.
Query: Short answer needed: outcome of this test for CCC1(C)N(O)C(C)(C)C(c2ccc(OC)cc2)=[N+]1[O-] (stereo not given) ?
Result: False

Query: Per the assay record, what outcome was assigned to COC(=O)Nc1nc2ccc(Sc3ccccc3)cc2[nH]1 ?
Result: True

---
Query: Hello, I am checking results. What call was entered for C[C@@H]1O[C@@H](O[C@@H]2[C@@H](O)[C@H](OCCc3ccc(O)c(O)c3)O[C@H](CO[C@@H]3O[C@H](CO)[C@@H](O)[C@H](O)[C@H]3O)[C@H]2OC(=O)/C=C/c2ccc(O)c(O)c2)[C@H](O)[C@H](O)[C@H]1O ?
Result: False

Query: Any idea what this test logged for CCOc1ccc(C(=O)Nc2cc(OC)ccc2OC)cc1 ?
Result: False

Query: # fetch the recorded call for O=C(O)CCC(=O)NCc1ccc2[nH]c3c(c2c1)CCCC3 here
Result: False
